Task for the reader: assign each of the following compounds its reported EC50.
# TARGET SYSTEM: human GPR40 (Homo sapiens, UniProt O14842)
# Construct: expressed in transfected cells; host or cells: CHO cells stably transfected with GPR40 and Aequorin
# Sequence (O14842 whole entry): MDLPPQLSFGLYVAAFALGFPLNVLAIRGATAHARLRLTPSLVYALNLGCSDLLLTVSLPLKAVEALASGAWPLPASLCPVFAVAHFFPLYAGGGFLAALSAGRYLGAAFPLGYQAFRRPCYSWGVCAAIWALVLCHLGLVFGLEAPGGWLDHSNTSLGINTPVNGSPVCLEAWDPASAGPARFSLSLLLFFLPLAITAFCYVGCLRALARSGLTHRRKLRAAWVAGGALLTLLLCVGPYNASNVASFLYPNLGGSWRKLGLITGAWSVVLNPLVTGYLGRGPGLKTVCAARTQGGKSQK
# METHOD SUMMARY: Cell-based aequorin assay
# EXPERIMENTAL PARAMETERS: CHO cells stably transfected with GPR40 and aequorin; 0.01% HSA

Consider the compound shown here: COc1ccc(F)c(-c2ccc(COc3ccc4c(c3F)[C@]3(CC4)C[C@H]3C(=O)O)cc2[C@@H](OC)C(C)(C)C)c1 (single isomer, unassigned) What is its recorded EC50? 10 to 100 nM

Likewise for COc1ccc(F)c(-c2c(F)cc(COc3ccc4c(c3)[C@]3(CC4)C[C@H]3C(=O)O)cc2[C@H]2CCCC2(C)C)c1 (single isomer, unassigned) ? 10 to 100 nM

Further, for C=CC(C)(C)[C@H]1c2cc(COc3ccc4c(c3)[C@]3(CC4)C[C@H]3C(=O)O)ccc2-c2c(F)ccc(OC)c21 (racemic) ? 100 to 1000 nM

Also COc1cc(-c2ccc(COc3ccc4c(c3)[C@]3(CC4)C[C@H]3C(=O)O)cc2[C@@H](OC)C(C)(C)C)c(F)cn1 (single isomer, unassigned) , if possible. 100 to 1000 nM

Also need CCCOc1ccc(COc2ccc3c(c2)[C@]2(CCC3)C[C@H]2C(=O)O)cc1[C@@H]1CCCC1(C)C (single isomer, unassigned) , thanks. 1000 to 10000 nM

---

Field: EC50. Provide a value for each of the compounds that follow.
# TARGET SYSTEM: human GPR40 (Homo sapiens, UniProt O14842)
# Construct: expressed in transfected cells; host or cells: CHO cells stably transfected with GPR40 and Aequorin
# METHOD SUMMARY: Inositol phosphate accumulation assay
# Format: cell-based
# EXPERIMENTAL PARAMETERS: A9 cell line stably transfected with GPR40; 1 hour at 37° C.; read-out: IP3 EC50

Please report the recorded EC50 for COc1ccc(F)c(-c2c(F)cc(COc3ccc4c(c3)[C@]3(CC4)C[C@H]3C(=O)O)cc2[C@@H]2CCCC2(C)C)c1 (single isomer, unassigned) . < 10 nM

Let us now turn to COc1ccc(F)c(-c2ccc(COc3ccc4c(c3)C3(CCC4)CCC3C(=O)O)cc2C(OC)C(C)(C)C)c1 (single isomer, unassigned) < 10 nM

Same read-out for COc1cc(-c2ccc(COc3ccc4c(c3F)[C@]3(CC4)C[C@H]3C(=O)O)cc2[C@@H]2CCCC2(C)C)c(Cl)cn1 (stereo in doubt) ? 10 to 100 nM

Would you kindly repeat that for COc1ccc(F)c(-c2ccc(COc3ccc4c(c3)C3(CC4)CCC3C(=O)O)cc2[C@@H]2CCCC2(C)C)c1 (single isomer, unassigned) ? 10 to 100 nM

Here is the next compound: COc1ccc(F)c(-c2ccc(COc3ccc4c(c3)[C@]3(CC4)C[C@H]3C(=O)O)cc2[C@@H](OC)C(C)(C)C)c1 (single isomer, unassigned) < 10 nM

Try this compound next: COc1cc(-c2ccc(COc3cc(F)c4c(c3F)[C@]3(CC4)C[C@H]3C(=O)O)cc2[C@H](OC)C(C)(C)C)c(F)cn1 (single isomer, unassigned) < 10 nM

Now this one: COc1cc(-c2ccc(COc3ccc4c(c3)[C@]3(CCC4)C[C@H]3C(=O)O)cc2[C@@H]2CCCC2(C)C)c(F)cn1 < 10 nM

And COc1cc(-c2ccc(COc3cc(F)c4c(c3F)[C@]3(CC4)C[C@H]3C(=O)O)cc2[C@@H]2CCCC2(C)C)c(F)cn1 (single isomer, unassigned) ? < 10 nM

Similarly, COc1ccc(F)c(-c2ccc(COc3ccc4c(c3)C3(CC4)CCC3C(=O)O)cc2C(OC)C(C)(C)C)c1 (single isomer, unassigned) ? < 10 nM

Same for COc1ccc(F)c(-c2ccc(COc3ccc4c(c3)[C@]3(CC4)C[C@H]3C(=O)O)cc2[C@H]2CCCC2(C)C)c1 (single isomer, unassigned) < 10 nM

What would you report for COc1cc(-c2ccc(COc3cc4c(cn3)CC[C@@]43C[C@@H]3C(=O)O)cc2[C@@H](OC)C(C)(C)C)c(F)cn1 (single isomer, unassigned) ? 100 to 1000 nM

One more compound: CCCCOc1cc(COc2ccc3c(c2)[C@]2(CC3)C[C@H]2C(=O)O)ccc1-c1cccc(OC)c1 100 to 1000 nM

Entry COc1ccc(F)c(-c2ccc(COc3ccc4c(c3F)[C@]3(CC4)C[C@H]3C(=O)O)cc2[C@@H](OC)C(C)(C)C)c1 (single isomer, unassigned) please < 10 nM

Subsequent entry: COc1ccc(F)c(-c2ccc(COc3ccc4c(c3F)[C@]3(CCC4)C[C@H]3C(=O)O)cc2[C@H]2CCCC2(C)C)c1 (single isomer, unassigned) < 10 nM

Same thing, different compound: COc1cccc(-c2ccc(COc3ccc4c(c3)[C@]3(CCC4)C[C@H]3C(=O)O)cc2[C@H](OC)C(C)(C)C)c1F (racemic) 10 to 100 nM

Next up: COc1cc(-c2ccc(COc3ccc4c(c3)[C@]3(CC4)C[C@H]3C(=O)O)cc2[C@@H](OC)C(C)(C)C)c(F)cn1 (single isomer, unassigned) < 10 nM

Try COc1cc(-c2ccc(COc3ccc4c(c3F)[C@]3(CCC4)C[C@H]3C(=O)O)cc2[C@@H]2CCCC2(C)C)c(F)cn1 next. < 10 nM

Could you do the same for COc1cc(-c2ccc(COc3ccc4c(c3F)[C@]3(CC4)C[C@H]3C(=O)O)cc2[C@@H](OC)C(C)(C)C)c(F)cn1 (single isomer, unassigned) , please? < 10 nM

---

# TARGET SYSTEM: human GPR40 (Homo sapiens)
# Construct: expressed in transfected cells; host or cells: CHO cells stably transfected with GPR40 and Aequorin
# METHOD SUMMARY: Cell-based aequorin assay
# EXPERIMENTAL PARAMETERS: CHO cells stably transfected with GPR40 and aequorin; 0.01% HSA
Field: EC50. Provide a value for each of the compounds that follow.

State the recorded EC50 for this entry: COc1ccc(F)c(-c2ccc(COc3cc(F)c4c(c3F)[C@@]3(CC4)C[C@@H]3C(=O)O)cc2[C@H]2CCCC2(C)C)c1 (single isomer, unassigned) 1 to 10 µM

Next up: COc1ccc(F)c(-c2cc(COc3ccc4c(c3)[C@@]3(CC4)C[C@@H]3C(=O)O)ccc2C(C)(C)C)c1 > 10 µM

Also check COc1cc(-c2cc(F)c(COc3ccc4c(c3)[C@]3(CC4)C[C@H]3C(=O)O)cc2[C@@H]2CCCC2(C)C)c(F)cn1 (single isomer, unassigned) 0.01 to 0.1 µM

---

Assignment: determine reported pEC50 for the given molecules.
# TARGET SYSTEM: human GPR40 (Homo sapiens, UniProt O14842)
# Construct: expressed in transfected cells; host or cells: CHO cells stably transfected with GPR40 and Aequorin
# METHOD SUMMARY: Inositol phosphate accumulation assay
# Type: cell-based
# EXPERIMENTAL PARAMETERS: A9 cell line stably transfected with GPR40; 1 hour at 37° C.; read-out: IP3 EC50
pEC50: −log10 of the molar value.

Look at this molecule and give its reported pEC50. COc1ccc(F)c(-c2ccc(COc3ccc4c(c3F)[C@@]3(CCC4)C[C@@H]3C(=O)O)cc2[C@H]2CCCC2(C)C)c1 (single isomer, unassigned) 5.00 to 6.00

Same again, this time with COc1ccc(F)c(-c2ccc(COc3cc(F)c4c(c3F)[C@]3(CC4)C[C@H]3C(=O)O)cc2[C@H]2CCCC2(C)C)c1 (single isomer, unassigned) > 8.00

COc1cc(-c2ccc(COc3ccc4c(c3)[C@]3(CC4)CC[C@@H]3C(=O)O)cc2[C@@H]2CCCC2(C)C)c(F)cn1 (single isomer, unassigned) , same question. > 8.00

Repeat with COc1cc(-c2cc(F)c(COc3ccc4c(c3F)[C@]3(CCC4)C[C@H]3C(=O)O)cc2[C@H]2CCCC2(C)C)c(F)cn1 (single isomer, unassigned) > 8.00
